SYSTEM: Aryl hydrocarbon receptor (Homo sapiens) (UniProt P35869)
Sequence (P35869 whole entry, looked up): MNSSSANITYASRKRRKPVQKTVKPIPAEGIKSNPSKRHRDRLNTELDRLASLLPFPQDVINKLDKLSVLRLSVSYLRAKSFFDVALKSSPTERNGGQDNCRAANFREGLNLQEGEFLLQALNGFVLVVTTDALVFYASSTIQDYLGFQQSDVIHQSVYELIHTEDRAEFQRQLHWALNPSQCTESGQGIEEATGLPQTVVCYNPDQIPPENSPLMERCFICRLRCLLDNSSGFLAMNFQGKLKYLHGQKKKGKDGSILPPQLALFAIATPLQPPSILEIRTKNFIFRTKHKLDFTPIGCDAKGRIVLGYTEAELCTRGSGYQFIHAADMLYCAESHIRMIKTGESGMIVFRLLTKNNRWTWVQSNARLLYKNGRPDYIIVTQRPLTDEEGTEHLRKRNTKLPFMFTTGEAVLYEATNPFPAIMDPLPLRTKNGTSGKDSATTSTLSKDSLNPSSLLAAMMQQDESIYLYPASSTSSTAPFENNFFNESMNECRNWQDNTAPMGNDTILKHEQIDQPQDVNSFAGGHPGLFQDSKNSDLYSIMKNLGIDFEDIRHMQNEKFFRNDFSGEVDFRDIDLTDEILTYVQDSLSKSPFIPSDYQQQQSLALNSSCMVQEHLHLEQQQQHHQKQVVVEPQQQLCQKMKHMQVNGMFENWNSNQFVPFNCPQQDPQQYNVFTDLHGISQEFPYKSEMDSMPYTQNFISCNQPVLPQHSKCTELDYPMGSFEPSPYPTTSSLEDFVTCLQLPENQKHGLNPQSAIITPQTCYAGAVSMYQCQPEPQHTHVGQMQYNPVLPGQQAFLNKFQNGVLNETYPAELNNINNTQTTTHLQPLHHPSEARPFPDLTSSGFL
PROTOCOL TEXT: ATG_Ahr_CIS: Attagene CIS-FACTORIAL HepG2 Assay for human Aryl Hydrocarbon Receptor (Ahr) (AID 2282930)
RUN PARAMETERS: HepG2 AhR cis-factorial reporter transcription; actives raise or lower the signal
Calls of active or inactive are those of the source. How the source made its calls: active means hit-call score of the fitted dose curve at least 0.9, where 1 is the maximum; inactive means score below 0.9.
ENDPOINT: AC50

Examples with answers:
COMPOUND	OBSERVED
O=C1C=CC(=O)N1c1ccccc1	inactive
NC(=O)C(F)(F)C(F)(F)C(F)(F)C(F)(F)C(N)=O	inactive
CN(C)C(C)(C)CO	inactive
CC1=CC2C3C=CC(C3)C2C1C (stereo not given)	inactive
CN(N=O)C(=O)N[C@@H]1[C@@H](O)[C@H](O)[C@@H](CO)O[C@@H]1O	inactive

Request: # query: AC50 | item Cc1ccc(O)c(-n2nc3ccccc3n2)c1 | system: Aryl hydrocarbon receptor (Homo sapiens) (UniProt P35869)
Result: 7.41 µM (active)

Request: O=S(=O)(O)CCC(F)(F)C(F)(F)C(F)(F)C(F)(F)F ?
Result: inactive

Request: Cc1cnccn1 ?
Result: 0.0965 µM (active)

Request: OCCCCl ?
Result: inactive

Request: O=C1C=CC(=O)N1c1ccc(Cc2ccc(N3C(=O)C=CC3=O)cc2)cc1 ?
Result: inactive

Request: C[Si](C)O[Si](C)C ?
Result: inactive
